Data provenance: patent US20090018134A1

ASSAYED SYSTEM: mTOR (Homo sapiens)
Construct: FLAG; made in house
ASSAY METHOD TEXT: In Vitro mTOR Kinase Assay (Echo), Test (a)(ii)
Assay type: biochemical
EXPERIMENTAL CONTEXT: table of enzyme assay Test (a)(ii); read-out: Test (a)(ii) IC50
ENDPOINT: IC50 (nM)
Your answer is read as nM, so omit the unit and give the number.

Ask: Read off the recorded IC50 for C[C@H]1COCCN1c1cc(C2(S(=O)(=O)c3ccc(F)cc3)CC2)nc(-c2ccc(NC(=O)NCCN(C)C)nc2)n1 [Example 14k]
Reply: 275

Ask: Read off the recorded IC50 for Cc1ccc(S(=O)(=O)C2(c3cc(N4CCOC[C@@H]4C)nc(-c4ccc(NC(=O)NC5CC5)cc4)n3)CC2)cc1 [Example 95m]
Reply: 2.02

Ask: Read off the recorded IC50 for C[C@H]1COC[C@H](C)N1c1cc(C2(S(=O)(=O)C3CC3)CC2)nc(-c2ccc(NC(=O)Nc3cnn(C)c3)cc2)n1 [Example 92b]
Reply: 7.46

====

Please provide measured IC50 for the entries that follow.
ASSAYED SYSTEM: mTOR (Homo sapiens)
Construct: FLAG; made in house
ASSAY METHOD TEXT: In Vitro mTOR Kinase Assay (Echo), Test (a)(ii)
Assay type: biochemical
EXPERIMENTAL CONTEXT: read-out: mTOR Kinase Assay (Echo)
Your answer is read as nM, so omit the unit and give the number.

Ask: Given CC(C)NC(=O)Nc1ccc(-c2nc(N3CCOC[C@@H]3C)cc(C3(S(=O)(=O)C4CC4)CC3)n2)cc1 [Example 3d] , report its IC50 on mTOR (Homo sapiens).
Reply: 13.5

Ask: Given CCS(=O)(=O)C1(c2cc(N3CCOC[C@@H]3C)nc(-c3ccc(NC(=O)NC)cc3)n2)CC1 [Example 11a] , report its IC50 on mTOR (Homo sapiens).
Reply: 4.18

Ask: Given CS(=O)(=O)C1(c2cc(N3CCOCC3)nc(-c3ccc(NC(=O)NCCO)cc3)n2)CCC1 [Example 12r] , report its IC50 on mTOR (Homo sapiens).
Reply: 0.991

Ask: Given C[C@H]1COCCN1c1cc(C2(S(C)(=O)=O)CC2)nc(-c2ccc(NC(=O)NCc3cnn(C)c3)cc2)n1 [Example 2a] , report its IC50 on mTOR (Homo sapiens).
Reply: 93.2

Ask: Given C[C@H]1COCCN1c1cc(C2(S(C)(=O)=O)CCCC2)nc(-c2ccc(NC(=O)NCc3ncc[nH]3)cc2)n1 [Example 4n] , report its IC50 on mTOR (Homo sapiens).
Reply: 39.2

Ask: Given CNC(=O)Nc1ccc(-c2nc(N3CCOC[C@@H]3C)cc(C3(S(=O)(=O)C4CCCC4)CC3)n2)cc1 [Example 9i] , report its IC50 on mTOR (Homo sapiens).
Reply: 2.4

Ask: Given CC(C)CNC(=O)Nc1ccc(-c2nc(N3CCOC[C@@H]3C)cc(C3(S(=O)(=O)c4ccccc4C(F)(F)F)CC3)n2)cc1 [Example 10c] , report its IC50 on mTOR (Homo sapiens).
Reply: 147

Ask: Given C[C@H]1COCCN1c1cc(C2(S(C)(=O)=O)CC2)nc(-c2ccc(NC(=O)NC(C)(C)CO)cc2)n1 [Example 2f] , report its IC50 on mTOR (Homo sapiens).
Reply: 4.33

Ask: Given C[C@H]1COCCN1c1cc(C2(S(C)(=O)=O)CCCC2)nc(-c2ccc(NC(=O)NCCN(C)C)cc2)n1 [Example 4g] , report its IC50 on mTOR (Homo sapiens).
Reply: 62.6

Ask: Given CC(C)S(=O)(=O)C1(c2cc(N3CCOC[C@@H]3C)nc(-c3ccc(NC(=O)NC(C)(C)CO)cc3)n2)CC1 [Example 7f] , report its IC50 on mTOR (Homo sapiens).
Reply: 9.15

Ask: Given C[C@H]1COCCN1c1cc(C2(S(C)(=O)=O)CC2)nc(-c2ccc(NC(=O)Nc3ccc(F)c(F)c3)cc2)n1 [Example 2q] , report its IC50 on mTOR (Homo sapiens).
Reply: 1

Ask: Given CCNC(=O)Nc1ccc(-c2nc(N3CCOC[C@@H]3C)cc(C3(S(C)(=O)=O)CCC3)n2)cc1 [Example 5a] , report its IC50 on mTOR (Homo sapiens).
Reply: 0.289

Ask: Given CN(C)CCNC(=O)Nc1ccc(-c2nc(N3CCOCC3)cc(C3(S(C)(=O)=O)CCC3)n2)cc1 [Example 12s] , report its IC50 on mTOR (Homo sapiens).
Reply: 134

Ask: Given CC(C)S(=O)(=O)C1(c2cc(N3CCOC[C@@H]3C)nc(-c3ccc(NC(=O)Nc4ccc(C(F)(F)F)cc4)cc3)n2)CC1 [Example 7k] , report its IC50 on mTOR (Homo sapiens).
Reply: 4.82

====

Please provide measured IC50 for the entries that follow.
ASSAYED SYSTEM: mTOR (Homo sapiens)
Construct: FLAG; made in house
ASSAY METHOD TEXT: In Vitro mTOR Kinase Assay (Echo), Test (a)(ii)
Format: biochemical
EXPERIMENTAL CONTEXT: read-out: mTOR Kinase Assay (Echo)
Your answer is read as nM, so omit the unit and give the number.

Ask: Given CCS(=O)(=O)C1(c2cc(N3CCOC[C@@H]3C)nc(-c3ccc(NC(=O)NC(C)(C)CO)cc3)n2)CC1 [Example 11f] , report its IC50 on mTOR (Homo sapiens).
Reply: 3.37

Ask: Given CCNC(=O)Nc1ccc(-c2nc(N3CCOC[C@@H]3C)cc(C3(S(=O)(=O)c4ccccc4C(F)(F)F)CC3)n2)cc1 [Example 10e] , report its IC50 on mTOR (Homo sapiens).
Reply: 6.91

Ask: Given CN(C)CCNC(=O)Nc1ccc(-c2nc(N3CCOCC3)cc(C3(S(C)(=O)=O)CCCC3)n2)cc1 [Example 12n] , report its IC50 on mTOR (Homo sapiens).
Reply: 238

Ask: Given `COc1ccc(NC(=O)Nc2ccc(-c3nc(N4CCOC[C@@H]4C)cc(C4(S(C)(=O)=O)CC4)n3)cc2)cc1` , report its IC50 on mTOR (Homo sapiens).
Reply: 1.45

====

ASSAYED SYSTEM: mTOR (Homo sapiens, UniProt P42345)
Construct: FLAG; made in house
Sequence (P42345 1362-2549): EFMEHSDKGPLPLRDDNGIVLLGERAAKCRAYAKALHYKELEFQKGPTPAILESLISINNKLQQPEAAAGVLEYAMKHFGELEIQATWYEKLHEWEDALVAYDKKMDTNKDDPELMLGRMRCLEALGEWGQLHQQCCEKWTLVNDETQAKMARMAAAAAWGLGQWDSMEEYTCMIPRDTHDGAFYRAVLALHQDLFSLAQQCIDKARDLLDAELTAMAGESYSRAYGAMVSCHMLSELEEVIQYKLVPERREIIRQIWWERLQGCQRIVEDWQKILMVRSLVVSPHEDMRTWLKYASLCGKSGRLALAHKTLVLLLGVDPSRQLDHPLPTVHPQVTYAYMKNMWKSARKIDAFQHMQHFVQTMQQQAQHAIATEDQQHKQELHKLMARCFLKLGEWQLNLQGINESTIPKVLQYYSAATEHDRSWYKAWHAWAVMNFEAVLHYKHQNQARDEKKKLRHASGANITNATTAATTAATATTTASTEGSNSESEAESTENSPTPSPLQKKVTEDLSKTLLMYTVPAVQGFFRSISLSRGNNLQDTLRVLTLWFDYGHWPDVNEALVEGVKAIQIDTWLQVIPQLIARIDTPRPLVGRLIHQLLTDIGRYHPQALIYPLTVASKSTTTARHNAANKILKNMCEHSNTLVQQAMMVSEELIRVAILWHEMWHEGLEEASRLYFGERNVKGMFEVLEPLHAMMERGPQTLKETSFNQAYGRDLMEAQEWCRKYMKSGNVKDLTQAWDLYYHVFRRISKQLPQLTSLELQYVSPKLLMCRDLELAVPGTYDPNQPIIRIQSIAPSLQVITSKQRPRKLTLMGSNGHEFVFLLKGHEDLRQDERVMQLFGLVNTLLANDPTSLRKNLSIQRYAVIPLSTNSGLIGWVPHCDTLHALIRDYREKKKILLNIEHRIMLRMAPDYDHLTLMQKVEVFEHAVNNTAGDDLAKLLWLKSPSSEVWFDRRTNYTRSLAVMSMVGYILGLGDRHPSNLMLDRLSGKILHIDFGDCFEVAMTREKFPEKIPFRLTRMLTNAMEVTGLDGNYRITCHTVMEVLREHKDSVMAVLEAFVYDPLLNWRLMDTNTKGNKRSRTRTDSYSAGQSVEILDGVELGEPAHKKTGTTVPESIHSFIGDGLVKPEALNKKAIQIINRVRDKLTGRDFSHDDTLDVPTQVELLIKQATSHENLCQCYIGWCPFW
ASSAY METHOD TEXT: In Vitro mTOR Kinase Assay (Echo), Test (a)(ii)
Format: biochemical
EXPERIMENTAL CONTEXT: table of enzyme assay Test (a)(ii); read-out: Test (a)(ii) IC50
For each record, check the reported IC50: if it is below 10 nM write Met, else write Not met.

Ask: # strict comparison: is reported IC50 < 10 nM? input = Cc1csc(S(=O)(=O)C2(c3cc(N4CCOC[C@@H]4C)nc(-c4ccc(NC(=O)NCC(C)C)cc4)n3)CC2)n1 [Example 25c]
Reply: Met

Ask: # strict comparison: is reported IC50 < 10 nM? input = O=C(Nc1ccc(-c2nc(N3CCOCC3)cc(C3(S(=O)(=O)c4ccc(F)cc4)CC3)n2)cc1)Nc1ncns1 [Example 36an]
Reply: Not met

Ask: # strict comparison: is reported IC50 < 10 nM? input = C[C@H]1COCCN1c1cc(C2(S(C)(=O)=O)CCCC2)nc(-c2ccc(NC(=O)NCCCO)cc2)n1 [Example 4j]
Reply: Met

Ask: # strict comparison: is reported IC50 < 10 nM? input = C[C@H]1COCCN1c1cc(C2(S(C)(=O)=O)CCC2)nc(-c2ccc(NC(=O)NC(C)(C)CO)cc2)n1 [Example 5f]
Reply: Met

Ask: # strict comparison: is reported IC50 < 10 nM? input = C[C@H]1COCCN1c1cc(C2(S(=O)(=O)c3ccccc3)CC2)nc(-c2ccc(NC(=O)NC3COC3)cc2)n1 [Example 36bp]
Reply: Met

Ask: # strict comparison: is reported IC50 < 10 nM? input = C[C@H]1COCCN1c1cc(C2(S(=O)(=O)C3CCCCC3)CC2)nc(-c2ccc(NC(=O)NC(C)(C)CO)cc2)n1 [Example 26f]
Reply: Met

Ask: # strict comparison: is reported IC50 < 10 nM? input = CCNC(=O)Nc1ccc(-c2nc(N3CCOCC3)cc(C3(S(=O)(=O)c4nc(C)cs4)CC3)n2)cc1 [Example 42d]
Reply: Met

Ask: # strict comparison: is reported IC50 < 10 nM? input = CCNC(=O)Nc1ccc(-c2nc(N3CCOCC3C(N)=O)cc(C3(S(=O)(=O)c4ccccc4)CC3)n2)cc1 (centres unmarked) [Example 89]
Reply: Not met

Ask: # strict comparison: is reported IC50 < 10 nM? input = Cc1noc(C)c1S(=O)(=O)C1(c2cc(N3CCOC[C@@H]3C)nc(-c3ccc(NC(=O)NCC(F)F)cc3)n2)CC1 [Example 59d]
Reply: Not met

Ask: # strict comparison: is reported IC50 < 10 nM? input = C[C@H]1COCCN1c1cc(C2(S(C)(=O)=O)CC2)nc(-c2ccc(NC(=S)NC3CC3)cc2)n1 [Example 35d]
Reply: Met

Ask: # strict comparison: is reported IC50 < 10 nM? input = CNC(=O)Nc1ccc(-c2nc(N3CCOC[C@@H]3C)cc(C3(S(=O)(=O)c4nc(C)c(C)s4)CC3)n2)cc1 [Example 80d]
Reply: Met

Ask: # strict comparison: is reported IC50 < 10 nM? input = Cc1csc(S(=O)(=O)C2(c3cc(N4CCOC[C@@H]4C)nc(-c4ccc(NC(=O)NCCC#N)cc4)n3)CCCC2)n1 [Example 36dm]
Reply: Not met

Ask: # strict comparison: is reported IC50 < 10 nM? input = C[C@H]1COCCN1c1cc(C2(S(=O)(=O)c3ccc(F)c(F)c3)CC2)nc(-c2ccc(NC(=O)NCCO)cc2)n1 [Example 64j]
Reply: Met

Ask: # strict comparison: is reported IC50 < 10 nM? input = CC(C)NC(=O)Nc1ccc(-c2nc(N3CCOC[C@@H]3C)cc(C3(S(=O)(=O)c4ccccn4)CC3)n2)cc1 [Example 28d]
Reply: Met
